test: protein stability index of a GFP-peptide fusion (GPS, HEK-293T) (PSI 1-6); higher = more stable; details: treatment: DMSO; c terminus: a fixed tail appended;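 further: 24-mer peptide tiles fused after GFP, lentivirally expressed, FACS-sorted into six equal bins by GFP/DsRed ratio, decoded by Illumina sequencing, PSI is the read-weighted mean bin number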
Readout type: protein stability index
The answer should be a number; do not append a unit.

Would you please look over these solved cases?
Macromolecule sequence | protein stability index
VSNFLKERTGFSIRPVAGYLSPRD [TPH1] | 2.71
PQYRSYFMECLVDARMLDHLTKKD [PPFIA4] | 2.7
QTESALSKKLRAILPKQSRKSMLD [LCOR] | 3.05
GTVPGQAPRLAVAVPAVTSADSQF [LYSMD4] | 4.46
LRALGELLRRDLGVGTSMEGASPL [FANCE] | 2.92

Query sequence follows.
Fill in: protein stability index of PENLLLASKSKGAAVKLADFGLAI [CAMK2D] is ___
2.53

These measurements were taken from the supplement of paper PMC10567573.
